Where these numbers come from: ChEMBL document CHEMBL1201862

Test system: UO-31
test.method.notes: NCI tumour cell line growth inhibition, 48 h
Activity calls are given as the source filed them. No stated cut-off is given here; in the data, active = GI50 up to about 1.1 µM and inactive = higher.
Outcomes: active, inactive

molecule | assigned.category
COc1cccc2c1OC1(C=C2)Oc2ccccc2C(=O)N1C (configuration not stated) | inactive
Cc1cc2c3ccccc3n3c2c2c1OC1(C)CCC(C2C1)C3(C)C (configuration not stated) | inactive
CN(C)C(=O)C(NCCO)c1ccccc1 (configuration not stated) | inactive
CC(C)/C(Cl)=N\OC(=O)NNc1ccccc1 | active
COc1cc(C2SCC(=O)N2Cc2ccccc2)cc(OC)c1OC (configuration not stated) | inactive
CC1CC(=O)c2c(ccc3c2C(=O)c2cccc(O)c2C3=O)C1 (configuration not stated) | inactive
Cc1cc2c(cc1Cl)SC(NNC1=NCCN1)=NS2(=O)=O | inactive
Cc1ccc(NC(=O)/C(=N\NC(N)=S)C(C#N)c2ccccc2C)cc1C (configuration not stated) | inactive
COc1c(C)c(C/C=C(\C)CC/C=C(\C)CC/C=C(\C)CCC=C(C)C)c(OC)c2ccccc12 | inactive
COc1cccc([C@@H]2C/C(=N\NC(=O)C(=O)N[C@@H](C)c3ccccc3)c3ccccc3N2)c1 | inactive
S=C1CC(c2ccc(Cl)cc2)Sc2ccccc2N1 (configuration not stated) | inactive
O=c1[nH]n(Cc2ccccc2Cl)c2ccccc12 | inactive

====

Tested on: M14
test.method.notes: NCI tumour cell line growth inhibition, 48 h
Active and inactive are the calls of the source. No stated cut-off is given here; in the data, active = GI50 up to about 1.1 µM and inactive = higher.
Outcomes: active, inactive

molecule | target.or.test.system | assigned.category
Nc1cc(=O)n(-c2ccccc2)c(=S)n1-c1ccccc1 | M14 | inactive
Cc1ccc(-c2c(C#N)c(S)n(NS(=O)(=O)c3ccccc3)c(=O)c2C#N)cc1 | M14 | inactive
C=CCOC(C)(C)C1=CCC(C)CC1 (stereo not drawn) | M14 | inactive
Nn1c(-c2ccccc2)nc2ccc(Br)cc2c1=O | M14 | inactive
COc1cc2ccnc3c2c(c1OC)-c1coc(SC)c1-3 | M14 | inactive
C/N=C(\NC(=S)N(C)C)N(C)C | M14 | inactive
N[C@H](C(=O)O)[C@@H](Cl)CC(=O)O | M14 | inactive
C=CCn1c(=O)c2ccccc2[n+]2c(C)c(C(=O)OCC)sc12 | M14 | inactive
N#Cc1c(N)nc(-c2ccc(Cl)cc2)c2c1-c1ccccc1S(=O)(=O)CC2 | M14 | inactive
COC(=O)C(=O)C(C(=O)OC)C(=O)C(=O)Nc1c(Cl)cc([N+](=O)[O-])cc1Cl (stereo not drawn) | M14 | inactive
O=C(C(=O)N1CCc2ccccc21)c1c[nH]c2ccccc12 | M14 | inactive
CC1(C)CC(=O)C=C(NC(=O)c2ccccc2)C1 | M14 | inactive
C=C(Cl)C(C)(Cl)CCC(Cl)C(C)(C)Cl (stereo not drawn) | M14 | inactive
C=C1C(=O)O[C@H]2C(=O)[C@H](C)CCC/C(C)=C/CC[C@@]3(C)O[C@@H]3C[C@@H]12 | M14 | inactive
O=C(Nc1nnc(-c2c(Cl)c(Cl)c(Cl)c(Cl)c2-c2nc3cc(C(=O)c4ccccc4)ccc3[nH]2)o1)c1ccc(Cl)cc1 | M14 | inactive
Cc1nc(-n2nc(-c3ccccc3)cc2-c2ccccc2)sc1C(=O)CC(=O)C(=O)Nc1ccc(O)cc1 | M14 | inactive
S=C1CC(c2ccc(Cl)cc2)Sc2ccccc2N1 (stereo not drawn) | M14 | inactive
CCOC(=O)C1CC/C(=C(/C#N)C(=O)OC)N1 (stereo not drawn) | M14 | inactive
CCOC(=O)c1csc(C(CSCc2ccc(OC)cc2)N2C(=O)c3ccccc3C2=O)n1 (stereo not drawn) | M14 | inactive
O=C1c2ccccc2C(=O)c2c1ccc1conc21 | M14 | inactive
O=C(OCc1ccccc1)c1nc2ccccc2n1S(=O)(=O)c1ccccc1 | M14 | inactive
CCCCCCCCCCCC[N+]12CC[N+](CCN)(CC1)CC2 | M14 | inactive
COc1ccc(C[C@H](N)C(=O)NC2C(CO)OC(n3cnc4c(N(C)C)ncnc43)C2O)cc1 (stereo partly drawn) | M14 | active
Cc1ccc2cccc(OC(=O)c3cc4c(cc3Cl)Sc3nccn3S4(=O)=O)c2n1 | M14 | inactive
O=[N+]([O-])/C=C(\CS(=O)(=O)c1ccccc1)c1ccc2c(c1)OCO2 | M14 | inactive
CC(C)/C(Cl)=N\OC(=O)NNc1ccccc1 | M14 | inactive
C(=C1/CCCCC([n+]2ccccc2)=N1)/c1ccccc1 | M14 | inactive
Nc1nc2c(ncn2C2C=CC(COS(N)(=O)=O)C2)c(=O)[nH]1 (stereo not drawn) | M14 | inactive

====

# GI50 annotations
Tested on: MDA-N
test.method.notes: NCI tumour cell line growth inhibition, 48 h
Active and inactive are the calls of the source. Rule as the data show it: active = GI50 up to about 1.1 µM and inactive = higher.
metric.name: GI50

compound | result
C=C(Cl)C(C)(Cl)CCC(Cl)C(C)(C)Cl (centres undefined) | 44.2 µM (inactive)
[N-]=[N+]=Nc1c([N+](=O)[O-])c(=O)n2c3c(cccc13)CCC2 | 14.4 µM (inactive)
COc1ccc2c(=O)cc(-c3ccc(OC)c(OC)c3OC)oc2c1 | 95.3 µM (inactive)
O=C(/C=C/C=C/c1ccccc1)c1ccccc1 | 16.2 µM (inactive)

====

Test system: SF-539
test.method.notes: NCI tumour cell line growth inhibition, 48 h
Active and inactive are the calls of the source. Cut-off read from the data, not from the text of the source: active = GI50 up to about 1.1 µM and inactive = higher.
Outcomes: True for active, False for inactive

compound | assigned.category
COc1c2c3c4c(c(OC)c(=O)c5c(O)cc(OC)c(c6c(OC)cc(O)c(c1=O)c63)c54)C(C(C)O)C2C(C)O (stereo unspecified) | True
COc1cc([C@@H]2c3cc4c(cc3C[C@H]3COC(=O)[C@@H]32)OCO4)cc2c1OCO2 [AUSTROBAILIGNAN 1] | True
COc1ccc(S(=O)(=O)N2C(=O)CCC2C(=O)NN)cc1 (stereo unspecified) | False
CNCc1cc(OC)ccc1-c1ccc(OC)c(OC)c1OC | False
C[N+](C)([O-])CCCNc1ccnc2cccc([N+](=O)[O-])c12 | False
Oc1ccc([Te]CCNCC[Te]c2ccc(O)cc2)cc1 | False
COc1ccc(-c2nc(SCC(=O)NNC(=S)Nc3ccccc3)[nH]c2-c2ccc(OC)cc2)cc1 | False
CCOP(=O)(OCC)/C(C#N)=C/c1c(C)[nH]c2ccccc12 | False
Clc1ccc2nc(-c3ccccc3)nc(Cl)c2c1 | False
CC1=C[C@H](C[C@]2(C)c3c(c4c(C)cccc4oc3=O)O[C@@H]2C)OC1=O | False
CO/N=C1/c2sccc2[C@H](NC(=O)C(Cc2ccccc2)NC(=O)OC(C)(C)C)[C@@H]1O (stereo partly specified) | False
c1ccc(CSCCc2ccncc2)cc1 | False
CC1=NNC(=O)C1C1C(=O)NN=C(c2c[nH]c3ccccc23)C1Br (stereo unspecified) | False
Cc1cn(C2CC(O)C(COC(N)=O)O2)c(=O)[nH]c1=O (stereo unspecified) | False
O=c1[nH]c(=O)n(C2CC(O)C(CO)O2)c2nc3ccc4ccccc4c3nc12 (stereo unspecified) | False
C=C(Cl)C(C)(Cl)CCC(Cl)C(C)(C)Cl (stereo unspecified) | False

====

System: DLD-1
test.method.notes: NCI tumour cell line growth inhibition, 48 h
Activity calls are given as the source filed them. No stated cut-off is given here; in the data, active = GI50 up to about 1.1 µM and inactive = higher.

compound | GI50
CCS(CC)(CC)CC1CCCC2=CCC(P(=O)(c3ccccc3)c3ccccc3)CC21 (stereo not drawn) | 11.2 µM (inactive)
Cc1ccc(NC(=O)/C(=N\NC(N)=S)C(C#N)c2ccccc2C)cc1C (stereo not drawn) | > 100 µM (inactive)
C=CC[C@H](C[C@H](C[C@H](C[C@H](C[C@H](C[C@H](C[C@H](C[C@H](C[C@H](C[C@H](CCCCC)OC)OC)OC)OC)OC)OC)OC)OC)OC)OC | > 100 µM (inactive)
N[C@H](C(=O)O)[C@@H](Cl)CC(=O)O | > 100 µM (inactive)
CCCC(O)c1ccc2[nH]c3c(C)cc([N+](=O)[O-])c(C)c3c2c1 (stereo not drawn) | 54.1 µM (inactive)
CCOC(=O)C1CC/C(=C(/C#N)C(=O)OC)N1 (stereo not drawn) | > 100 µM (inactive)
C/C(CN1C(=O)c2ccccc2C1=O)=N\NS(=O)(=O)c1ccc2ccccc2c1 | > 100 µM (inactive)
Clc1ccc2c(Cl)ncnc2c1 | > 100 µM (inactive)

====

Tested on: Malme-3M
test.method.notes: NCI tumour cell line growth inhibition, 48 h
The source made the active and inactive calls. Cut-off read from the data, not from the text of the source: active = GI50 up to about 1.1 µM and inactive = higher.
# GI50 annotations
metric.name: GI50

compound | result
O=C(C(=O)N1CCc2ccccc21)c1c[nH]c2ccccc12 | > 10 µM (inactive)
CC(C)[C@](O)(C(=O)OCC1=CC[N+]2([O-])CC[C@@H](O)[C@@H]12)[C@H](C)O (stereo partly drawn) [INDICINE N-OXIDE] | > 9420 µM (inactive)
Cc1nc2[nH]ccn2c(=O)c1CCO | > 10 µM (inactive)
CN(C)c1nc(N(C)C)n2nc(-c3ccccc3[N+](=O)[O-])nc2n1 | > 100 µM (inactive)
CSC1=C(c2ccc(Cl)cc2)SC(N2CCCCC2)N1c1ccc([N+](=O)[O-])cc1 (stereo not drawn) | 45.2 µM (inactive)
CCCCC(=O)NC1(c2cc3ccccc3s2)CCCCC1 | > 100 µM (inactive)
SCc1ccc(-c2ccc(CS)cc2)cc1 | 16.9 µM (inactive)
NC1(P(=O)(O)O)CCCCC1 | > 100 µM (inactive)
CC[C@@]1(O)C(=O)OCc2c1cc1n(c2=O)Cc2c-1nc1ccccc1c2/C=N\NC(=O)C(N)Cc1c[nH]cn1 (stereo partly drawn) | 2.53 µM (inactive)
CC(C)/C(Cl)=N\OC(=O)NNc1ccccc1 | 15.8 µM (inactive)
Nn1c(-c2ccccc2)nc2ccc(Br)cc2c1=O | 15.1 µM (inactive)
O=C(O)c1nc2cc(C(F)(F)F)ccc2nc1Nc1ccc(F)cc1 | 12.4 µM (inactive)
Cc1cc(C)nc(NS(=O)(=O)c2ccc(Nc3c4ccc(Cl)cc4nc4c(C(=O)NCCN(C)C)cccc34)cc2)n1 | > 100 µM (inactive)
